- Test system: MCF7
- Test description: Growth inhibition of human MCF7 cells by MTT assay
- Assay type: functional
Readout name: GI50 (µM)
Your answer is read as µM, so omit the unit and give the number.

In [3]: df
Out[3]:
                         compound_structure  readout_name  unit_text  recorded_value
0  C#CCCCO[C@H]1[C@H]2c3cc4c(cc3CN3CCC(=C[C@@H]1OCCCC#C)[C@H]23)OCO4          GI50         µM              22
1  C#CCCCCO[C@H]1C=C2CCN3Cc4cc5c(cc4[C@H]([C@@H]1O)[C@@H]23)OCO5          GI50         µM              32
2  C1=C2CCN3Cc4cc5c(cc4[C@H]([C@H](OCC4CCC4)[C@H]1OCC1CCC1)[C@@H]23)OCO5          GI50         µM              25
3  C#CCCCCO[C@H]1C=C2CCN3Cc4cc5c(cc4[C@H]([C@@H]1O[Si](C(C)C)(C(C)C)C(C)C)[C@@H]23)OCO5          GI50         µM              19
4  O[C@H]1[C@H]2c3cc4c(cc3CN3CCC(=C[C@@H]1OCC1CCC1)[C@H]23)OCO4          GI50         µM              37

Exercise: # GI50 lookup, item `C=CCCO[C@H]1C=C2CCN3Cc4cc5c(cc4[C@H]([C@@H]1O)[C@@H]23)OCO5`
Key: 7.7

Exercise: Similarly, `C#CCCCO[C@H]1C=C2CCN3Cc4cc5c(cc4[C@H]([C@@H]1O[Si](C(C)C)(C(C)C)C(C)C)[C@@H]23)OCO5` ?
Key: 31

====

Known GI50 of a selection of compounds
- System: MCF7
- Test description: Growth inhibition of human MCF7 cells by MTT assay
- Format: functional
Write down the numeric answer in µM and omit the unit.

Exercise: Query GI50 on MCF7 for `C#CCCCCO[C@H]1[C@H]2c3cc4c(cc3CN3CCC(=C[C@@H]1O[Si](C(C)C)(C(C)C)C(C)C)[C@H]23)OCO4`
Key: 28

Exercise: Now consider `CC(C)=CCO[C@H]1[C@H]2c3cc4c(cc3CN3CCC(=C[C@@H]1OCC=C(C)C)[C@H]23)OCO4` .
Key: 9.5

Exercise: Also, `O[C@H]1[C@H]2c3cc4c(cc3CN3CCC(=C[C@@H]1OC/C=C/c1ccccc1)[C@H]23)OCO4` please.
Key: 3.8

Exercise: Now consider `C1=C2CCN3Cc4cc5c(cc4[C@H]([C@H](OCC4CC4)[C@H]1OCC1CC1)[C@@H]23)OCO5` .
Key: 28

Exercise: # iterate: `CCCO[C@H]1[C@H]2c3cc4c(cc3CN3CCC(=C[C@@H]1OCCC)[C@H]23)OCO4`
Key: 19

====

- Tested on: MCF7
- Test description: Growth inhibition of human MCF7 cells by MTT assay
- Format: functional
Readout name: GI50

>>> print(df.to_string())
                         compound_structure  measurement_target  recorded_value
0  CO[C@H]1[C@H]2c3cc4c(cc3CN3CCC(=C[C@@H]1O)[C@H]23)OCO4                MCF7        > 100 µM

Exercise: Sample `C#CCO[C@H]1C=C2CCN3Cc4cc5c(cc4[C@H]([C@@H]1O)[C@@H]23)OCO5` — what was its GI50?
Key: > 100 µM

Exercise: `O[C@H]1[C@H]2c3cc4c(cc3CN3CCC(=C[C@@H]1OC[C@@H]1CO1)[C@H]23)OCO4` ?
Key: > 100 µM
